Biological target: Cell division control protein 42 homolog (Homo sapiens)
Sequence (P60953 whole entry): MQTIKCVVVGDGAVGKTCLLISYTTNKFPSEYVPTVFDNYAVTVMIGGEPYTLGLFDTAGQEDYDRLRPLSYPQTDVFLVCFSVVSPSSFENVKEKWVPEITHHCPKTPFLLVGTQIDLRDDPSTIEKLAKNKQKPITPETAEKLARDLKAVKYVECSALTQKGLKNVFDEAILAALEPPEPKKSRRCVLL
Experiment: activated mutant Cdc42 GTP-binding inhibitors, dose response, biochemical, multiplex bead flow cytometry, Bodipy-FL-GTP (AID 1333)
Measured Property: EC50

1) CC1(C)Cc2c(sc(NC(=S)NC(=O)c3ccccc3)c2C(=O)O)CO1 :: 92 nM
